Values of IC50 for Protein deacetylase HDAC6 (Homo sapiens), collected from a number of published sources:
METRIC: IC50 (nM)

Guide cases for IC50, answers given:
| COMPOUND | OBSERVED_RESULT |
| --- | --- |
| O=C(NO)c1ccc2cn(Cc3ccc(Cl)cc3)nc2c1 | 2.7 |
| O=C(OCc1ccncc1)c1ccnc(CCOC(=O)C2CSC(O)CN2C(=O)C(=O)c2ccccn2)c1 (stereo not shown) | 0.92 |

(I) O=C(CSC1=N[C@@H]2CCCC[C@H]2N1)N1CCN(c2ccc(Cl)cc2)CC1 (racemic)
(II) O=C(N[C@@H]1CCCC[C@H]1N1C(=O)c2ccc(-c3nnc(C(F)F)o3)cc2S1(=O)=O)C(F)F
Ask: Compare the recorded IC50 of I and II ; state which is larger. Give the label under which the chosen entry appears.
Reply: I
(I: 756 nM, II: 395 nM)
